target: Bcl-2-like protein 1 (Homo sapiens) (UniProt Q07817); experiment: Bcl-xL/Bim BH3 interaction blockers – biochemical, fluorescence polarization, HTS, primary screen (AID 2129); settings: GST-Bcl-xL / FITC-Bim BH3 peptide fluorescence polarization; at 10.9 µM; stronger effect = higher value;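 also: inhibitors lower millipolarization by displacing the labeled peptide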
Sequence (Q07817 whole entry, looked up): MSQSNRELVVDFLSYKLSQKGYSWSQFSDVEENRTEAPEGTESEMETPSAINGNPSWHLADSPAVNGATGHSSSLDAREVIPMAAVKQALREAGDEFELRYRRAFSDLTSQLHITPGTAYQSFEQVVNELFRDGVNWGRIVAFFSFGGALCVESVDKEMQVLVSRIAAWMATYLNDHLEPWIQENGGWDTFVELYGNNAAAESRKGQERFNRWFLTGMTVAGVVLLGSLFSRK
In all, about 320,000 compounds went through this assay and about 2,200 (0.69%) were called active. For the sample, actives were picked, then their nearest neighbours and some compounds at random.
// not satisfied strictly below 5% in inhibition; satisfied otherwise

Illustrative cases are given below, each with its answer.
- MOLECULE: "NS(=O)(=O)c1ccc(NC(=O)COC(=O)c2cc3ccccc3oc2=O)cc1"
  CLASS_LABEL: "not satisfied"
- MOLECULE: "C[N+](C)(CCCCCC[N+](C)(C)CCCN1C(=O)c2cccc3cccc(c23)C1=O)CCCN1C(=O)c2cccc3cccc(c23)C1=O"
  CLASS_LABEL: "not satisfied"
- MOLECULE: "Cc1nn(C(=O)c2ccoc2C)c(N)c1-c1ccccc1"
  CLASS_LABEL: "satisfied"

Please tell me: is the molecule CC(NC(=O)CSc1nc2c(cc1C#N)CN(C)CC2)c1ccccc1 (stereo not given) at or over 5% in terms of inhibition?
satisfied

Now give it for O=C1CCC(=O)N1c1ccc(NCCc2ccccc2F)c([N+](=O)[O-])c1 too.
not satisfied
